Reported values of viability at 31.25 µg/mL for individual entries
Test system: WI-38 human normal fibroblast cells
PROTOCOL DETAILS: cell viability assay (MTT)
Assay type: cell-based
RECORDED CONDITIONS: 31.25 µg/mL, 24 h, read-out: Validity (%) for sample concentrations (µg/mL) 31.25
Note: unit % is implicit; provide only the numeric part.

Please review the entries below; each comes with its answer.
O=C1CSC(c2ccnc3ccccc23)N1c1nc(-c2cc(Cl)cc3c2-c2ccc(Cl)cc2C3)cs1 (centres unmarked) | 54.3
O=C1C(Cl)C(c2ccc(Cl)cc2)N1c1nc(-c2cc(Cl)cc3c2-c2ccc(Cl)cc2C3)cs1 (centres unmarked) | 94.5
O=C1C(Cl)C(c2ccc[nH]2)N1c1nc(-c2cc(Cl)cc3c2-c2ccc(Cl)cc2C3)cs1 (centres unmarked) | 94
O=C1CSC(c2ccc(Br)cc2)N1c1nc(-c2cc(Cl)cc3c2-c2ccc(Cl)cc2C3)cs1 (centres unmarked) | 94.9

# input for lookup
Exam item: For the record O=C1C(Cl)C(c2ccncc2)N1c1nc(-c2cc(Cl)cc3c2-c2ccc(Cl)cc2C3)cs1 (centres unmarked) , what value of viability at 31.25 µg/mL is listed for WI-38 human normal fibroblast cells?
Marked response: 78.5

These data points were gathered from paper PMC7315563.
